Every entry's value here was drawn from the supplement of paper PMC11061612.

Record form. Attribute: Bliss excess. Fill in for each entry.
system: KE-37 (T-Lymphoblastic Leukemia); test: Bliss excess, mean over the matrix (fraction); higher = more synergy
Answers are plain numbers.

Examples with their reported Bliss excess follow.
molecule	Bliss excess
CN(C)CCCOc1ccc(-c2ccc3ncc4c(c3c2)n(C2CCOCC2)c(=O)n4C)cn1 [AZD0156] + C[C@@H]1COCCN1C2=NC(=NC(=C2)C3(CC3)[S@](=N)(=O)C)C4=C5C=CNC5=NC=C4 [AZD6738] (first compound max 1 µM, 7x7, partner max 10 µM)	0.0459
CS(=O)(=O)CCNCc1ccc(-c2ccc3ncnc(Nc4ccc(OCc5cccc(F)c5)c(Cl)c4)c3c2)o1 [Lapatinib] + C[C@@H](Oc1cc(-c2cnn(C3CCNCC3)c2)cnc1N)c1c(Cl)ccc(F)c1Cl [Crizotinib] (first compound max 10 µM, 7x7, partner max 10 µM)	0.0236
C=CCn1c(=O)c2cnc(Nc3ccc(N4CCN(C)CC4)cc3)nc2n1-c1cccc(C(C)(C)O)n1 [AZD1775] + C[C@@H]1COCCN1C2=NC(=NC(=C2)C3(CC3)[S@](=N)(=O)C)C4=C5C=CNC5=NC=C4 [AZD6738] (first compound max 1 µM, partner max 10 µM)	0.0552

Now let's try a different one.
Consider the molecule CCN(CCO)CCCOc1ccc2c(Nc3cc(CC(=O)Nc4cccc(F)c4)[nH]n3)ncnc2c1 [AZD2811] + C[C@@H]1COCCN1C2=NC(=NC(=C2)C3(CC3)[S@](=N)(=O)C)C4=C5C=CNC5=NC=C4 [AZD6738] (first compound max 1 µM, 7x7, partner max 10 µM) and give its measured Bliss excess.
-0.0515

* * *

test system: LN-229 (Glioblastoma); assay: Bliss excess, mean over the matrix (fraction); higher = more synergy
assay endpoint: Bliss excess

molecule	Bliss excess
Cc1cc2ncnn2cc1Nc1ncc2c(n1)n(C1CCOCC1)c(=O)n2C [AZD7648] + O=C(c1cc(Cc2n[nH]c(=O)c3ccccc23)ccc1F)N1CCN(C(=O)C2CC2)CC1 [Olaparib] (first compound max 10 µM, 7x7, partner max 10 µM)	-0.0816

Now let's try a different one.
Lookup: Bliss excess / LN-229 (Glioblastoma) / COc1nnc2ccc(N3CCC(c4ccc(OCCN5CCN(C)C(=O)[C@H]5C)cc4)CC3)nn12 [AZD5153] + CN(CC[C@H](CSC1=CC=CC=C1)NC2=C(C=C(C=C2)S(=O)(=O)NC(=O)C3=CC=C(C=C3)N4CCC(CC4)[C@H](C5=CC=CC=C5C6=CC=C(C=C6)Cl)O)S(=O)(=O)C(F)(F)F)CCO [AZD4320] (first compound max 1 µM, 7x7, partner max 1 µM)
0.0357

* * *

tested on: REH (B-Lymphoblastic Leukemia); assay: combination Emax (second highest fraction inhibited in the dose matrix, 72 h); higher = more inhibition; extreme values may be limits of the assay
assay endpoint: combination Emax
Give bare numbers.

molecule	combination Emax
CN(CCO)CC[C@H](CSc1ccccc1)Nc1ccc(S(=O)(=O)NC(=O)c2ccc(N3CCC([C@@H](O)c4ccccc4-c4ccc(Cl)cc4)CC3)cc2)cc1S(=O)(=O)C(F)(F)F [AZD4320] + CCN(CCO)CCCOc1ccc2c(Nc3cc(CC(=O)Nc4cccc(F)c4)[nH]n3)ncnc2c1 [AZD2811] (first compound max 1 µM, 7x7, partner max 1 µM)	1
CC(=O)c1c(C)c2cnc(Nc3ccc(N4CCNCC4)cn3)nc2n(C2CCCC2)c1=O [Palbociclib] + Cc1c2c(nn1C)CSCc1cc(n(C)n1)CSc1cc(c3ccccc3c1)OCCCc1c(C(=O)O)n(C)c3c-2c(Cl)ccc13 [AZD5991] (first compound max 10 µM, 7x7, partner max 1 µM)	0.835

Now let's try a different one.
Lookup: combination Emax / REH (B-Lymphoblastic Leukemia) / CN(CCO)CC[C@H](CSc1ccccc1)Nc1ccc(S(=O)(=O)NC(=O)c2ccc(N3CCC([C@@H](O)c4ccccc4-c4ccc(Cl)cc4)CC3)cc2)cc1S(=O)(=O)C(F)(F)F [AZD4320] + Nc1ccn([C@@H]2O[C@H](CO)[C@@H](O)C2(F)F)c(=O)n1 [Gemcitabine] (first compound max 1 µM, 7x7, partner max 0.3 µM)
1

* * *

test system: LB996-RCC (Kidney Carcinoma); assay: combination Emax (second highest fraction inhibited in the dose matrix, 72 h); higher = more inhibition; extreme values may be limits of the assay
assay endpoint: combination Emax

Examples with their reported combination Emax follow.
molecule	target or system	combination Emax
CN(CCO)CC[C@H](CSc1ccccc1)Nc1ccc(S(=O)(=O)NC(=O)c2ccc(N3CCC([C@@H](O)c4ccccc4-c4ccc(Cl)cc4)CC3)cc2)cc1S(=O)(=O)C(F)(F)F [AZD4320] + C=CCn1c(=O)c2cnc(Nc3ccc(N4CCN(C)CC4)cc3)nc2n1-c1cccc(C(C)(C)O)n1 [AZD1775] (first compound max 1 µM, partner max 1 µM)	LB996-RCC (Kidney Carcinoma)	0.978
COc1cc2c(cc1OCCCCCOc1cc3c(cc1OC)C(=O)N1C=C(C)C[C@H]1C=N3)N=C[C@@H]1CC(C)=CN1C2=O [SG3199] + O=C(c1cc(Cc2n[nH]c(=O)c3ccccc23)ccc1F)N1CCN(C(=O)C2CC2)CC1 [Olaparib] (first compound max 0.001 µM, 7x7, partner max 10 µM)	LB996-RCC (Kidney Carcinoma)	0.282

Look at each molecule and report its combination Emax.
1. CCc1c2c(nc3ccc(O)cc13)-c1cc3c(c(=O)n1C2)COC(=O)[C@]3(O)CC [SN-38] + CN(C)CCCOc1ccc(-c2ccc3ncc4c(c3c2)n(C2CCOCC2)c(=O)n4C)cn1 [AZD0156] (first compound max 0.3 µM, 7x7, partner max 1 µM)
2. Cc1c2c(nn1C)CSCc1cc(n(C)n1)CSc1cc(c3ccccc3c1)OCCCc1c(C(=O)O)n(C)c3c-2c(Cl)ccc13 [AZD5991] + CN(C)CCCOc1ccc(-c2ccc3ncc4c(c3c2)n(C2CCOCC2)c(=O)n4C)cn1 [AZD0156] (first compound max 1 µM, 7x7, partner max 1 µM)
3. CN(C)CCCOc1ccc(-c2ccc3ncc4c(c3c2)n(C2CCOCC2)c(=O)n4C)cn1 [AZD0156] + C=CCn1c(=O)c2cnc(Nc3ccc(N4CCN(C)CC4)cc3)nc2n1-c1cccc(C(C)(C)O)n1 [AZD1775] (first compound max 1 µM, partner max 1 µM)
4. CN(CCO)CC[C@H](CSc1ccccc1)Nc1ccc(S(=O)(=O)NC(=O)c2ccc(N3CCC([C@@H](O)c4ccccc4-c4ccc(Cl)cc4)CC3)cc2)cc1S(=O)(=O)C(F)(F)F [AZD4320] + C[C@@H]1COCCN1C2=NC(=NC(=C2)C3(CC3)[S@](=N)(=O)C)C4=C5C=CNC5=NC=C4 [AZD6738] (first compound max 1 µM, 7x7, partner max 10 µM)
5. Cc1cc2ncnn2cc1Nc1ncc2c(n1)n(C1CCOCC1)c(=O)n2C [AZD7648] + O=C(c1cc(Cc2n[nH]c(=O)c3ccccc23)ccc1F)N1CCN(C(=O)C2CC2)CC1 [Olaparib] (first compound max 10 µM, 7x7, partner max 10 µM)

1: 0.898; 2: 0.265; 3: 0.801; 4: 0.837; 5: 0.423

* * *

test system: SF268 (Low Grade Glioma); experiment: combination Emax (second highest fraction inhibited in the dose matrix, 72 h); higher = more inhibition; extreme values may be limits of the assay
Record form. Attribute: combination Emax. Fill in for each entry.
One number for each entry.

Examples with their reported combination Emax follow.
compound	combination Emax
CCN(CCO)CCCOc1ccc2c(Nc3cc(CC(=O)Nc4cccc(F)c4)[nH]n3)ncnc2c1 [AZD2811] + O=C(c1cc(Cc2n[nH]c(=O)c3ccccc23)ccc1F)N1CCN(C(=O)C2CC2)CC1 [Olaparib] (first compound max 1 µM, 7x7, partner max 10 µM)	0.178
CN(CCO)CC[C@H](CSc1ccccc1)Nc1ccc(S(=O)(=O)NC(=O)c2ccc(N3CCC([C@@H](O)c4ccccc4-c4ccc(Cl)cc4)CC3)cc2)cc1S(=O)(=O)C(F)(F)F [AZD4320] + C[C@@H](Nc1cc(F)cc(F)c1)c1cc(C(=O)N(C)C)cc2c(=O)cc(N3CCOCC3)oc12 [AZD8186] (first compound max 1 µM, 7x7, partner max 3 µM)	0.66
C[C@@H](c1ccc2nccn2c1)n1nnc2ncc(-c3cnn(C)c3)nc21 [Savolitinib] + Cc1c2c(nn1C)CSCc1cc(n(C)n1)CSc1cc(c3ccccc3c1)OCCCc1c(C(=O)O)n(C)c3c-2c(Cl)ccc13 [AZD5991] (first compound max 1 µM, 7x7, partner max 1 µM)	0.167
CC(=O)c1c(C)c2cnc(Nc3ccc(N4CCNCC4)cn3)nc2n(C2CCCC2)c1=O [Palbociclib] + CC1(C)CCC(CN2CCN(c3ccc(C(=O)NS(=O)(=O)c4ccc(NCC5CCOCC5)c([N+](=O)[O-])c4)c(Oc4cnc5[nH]ccc5c4)c3)CC2)=C(c2ccc(Cl)cc2)C1 [Venetoclax] (first compound max 10 µM, 7x7, partner max 1 µM)	0.254
CC1(C)CCC(CN2CCN(c3ccc(C(=O)NS(=O)(=O)c4ccc(NCC5CCOCC5)c([N+](=O)[O-])c4)c(Oc4cnc5[nH]ccc5c4)c3)CC2)=C(c2ccc(Cl)cc2)C1 [Venetoclax] + C[C@@H]1COCCN1C2=NC(=NC(=C2)C3(CC3)[S@](=N)(=O)C)C4=C5C=CNC5=NC=C4 [AZD6738] (first compound max 1 µM, 7x7, partner max 10 µM)	0.64
C[C@@H](c1ccc2nccn2c1)n1nnc2ncc(-c3cnn(C)c3)nc21 [Savolitinib] + CC1(C)CCC(CN2CCN(c3ccc(C(=O)NS(=O)(=O)c4ccc(NCC5CCOCC5)c([N+](=O)[O-])c4)c(Oc4cnc5[nH]ccc5c4)c3)CC2)=C(c2ccc(Cl)cc2)C1 [Venetoclax] (first compound max 1 µM, 7x7, partner max 1 µM)	0.104

Now let's try a different one.
Consider the compound CN(C)CCCOc1ccc(-c2ccc3ncc4c(c3c2)n(C2CCOCC2)c(=O)n4C)cn1 [AZD0156] + C[C@@H]1COCCN1C2=NC(=NC(=C2)C3(CC3)[S@](=N)(=O)C)C4=C5C=CNC5=NC=C4 [AZD6738] (first compound max 1 µM, 7x7, partner max 10 µM) and give its measured combination Emax.
0.497
